This collection of values is drawn from patent US6365603B1.

Exercise: for every item that follows, state its recorded melting point.

(Q) Supply reported melting point belonging to this molecule: CCN(Cc1cc(Cl)ccc1OCC1CC1)c1ccc(C(N)=O)nn1 [Example 21]
(A) 177 to 178 °C

(Q) Supply reported melting point belonging to this molecule: CCN(Cc1cc(Br)ccc1OCC1CC1)c1ccc(C(=O)O)nn1 [Example 3]
(A) 73 to 80 °C

(Q) Supply reported melting point belonging to this molecule: CCCOc1ccc(Br)cc1CN(CC)c1ccc(C(=O)O)nn1 [Example 18]
(A) 135 to 137 °C

(Q) Supply reported melting point belonging to this molecule: CCN(Cc1cc(Cl)ccc1OCC1CC1)c1ccc(-c2nnn[nH]2)nn1 [Example 23]
(A) 190 to 192 °C

(Q) Supply reported melting point belonging to this molecule: CCN(Cc1cc(Cl)ccc1OCC1CC1)c1ccc(C(=O)O)nn1 [Example 22]
(A) 119 to 120 °C
